# system_tested: Cytochrome P450 2D6 (Homo sapiens, UniProt P10635)
# Sequence (P10635 whole entry): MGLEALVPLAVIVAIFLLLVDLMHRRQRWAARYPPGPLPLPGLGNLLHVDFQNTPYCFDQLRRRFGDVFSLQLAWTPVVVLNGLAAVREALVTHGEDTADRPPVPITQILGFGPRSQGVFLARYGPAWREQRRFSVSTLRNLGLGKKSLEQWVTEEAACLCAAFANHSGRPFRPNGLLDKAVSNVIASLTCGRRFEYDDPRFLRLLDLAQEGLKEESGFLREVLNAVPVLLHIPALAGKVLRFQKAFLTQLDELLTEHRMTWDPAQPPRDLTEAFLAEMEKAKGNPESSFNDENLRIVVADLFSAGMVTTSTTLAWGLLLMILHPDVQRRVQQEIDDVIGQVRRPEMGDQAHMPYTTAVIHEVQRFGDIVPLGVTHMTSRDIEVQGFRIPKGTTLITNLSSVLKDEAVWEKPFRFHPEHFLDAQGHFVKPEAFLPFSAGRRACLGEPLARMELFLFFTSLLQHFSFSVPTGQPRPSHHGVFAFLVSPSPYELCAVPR
pIC50: −log10 of the molar value.

- molecule: "CN(CC(=O)N1CCC[C@H](c2ccccc2)[C@@H]1CN1CCCC1)c1ccc(Cl)c(Cl)c1 (stereo in doubt; 10b)"
  system_tested: "Cytochrome P450 2D6 (Homo sapiens, UniProt P10635)"
  pIC50: 6.10

----------
# system_tested: Urotensin-2 receptor (Homo sapiens, UniProt Q9UKP6)
# Sequence (Q9UKP6 whole entry): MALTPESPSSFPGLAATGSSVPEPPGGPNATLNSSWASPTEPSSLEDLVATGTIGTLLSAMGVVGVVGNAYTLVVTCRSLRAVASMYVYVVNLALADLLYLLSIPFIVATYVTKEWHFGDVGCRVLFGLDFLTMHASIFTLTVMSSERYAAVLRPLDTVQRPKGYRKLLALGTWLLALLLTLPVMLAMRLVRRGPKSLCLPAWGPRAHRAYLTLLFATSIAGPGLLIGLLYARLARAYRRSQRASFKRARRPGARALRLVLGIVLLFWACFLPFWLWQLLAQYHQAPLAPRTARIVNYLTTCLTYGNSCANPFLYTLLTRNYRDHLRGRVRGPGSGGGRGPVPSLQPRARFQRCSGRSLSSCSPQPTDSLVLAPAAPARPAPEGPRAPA
# test_method_notes: Inhibition of human recombinant urotensin 2 receptor-mediated calcium mobilization expressed in HEK293 cells by FLIPR assay
pIC50: −log10 of the molar value.

- molecule: "CN(CC(=O)N1CCCCC1CN1CCCC1)c1ccc(Cl)c(Cl)c1 (stereo unspecified)"
  pIC50: 6.20

----------
pKi: −log10 of the molar value.
Quick record: pKi, Urotensin-2 receptor (Rattus norvegicus).
reported_metric: pKi

- compound: "CN(CC(=O)N1CCC[C@H](c2ccccc2)[C@@H]1CN1CCCC1)c1ccc(Cl)c(Cl)c1 (stereo in doubt; 11a)"
  reported: 8.20
- compound: "O=C(Cc1csc2ccc(Cl)cc12)N1CCC[C@H](c2ccccc2)[C@@H]1CN1CCCC1"
  reported: 8.00

----------
# system_tested: Cytochrome P450 3A4 (Homo sapiens, UniProt P08684)
# Sequence (P08684 whole entry): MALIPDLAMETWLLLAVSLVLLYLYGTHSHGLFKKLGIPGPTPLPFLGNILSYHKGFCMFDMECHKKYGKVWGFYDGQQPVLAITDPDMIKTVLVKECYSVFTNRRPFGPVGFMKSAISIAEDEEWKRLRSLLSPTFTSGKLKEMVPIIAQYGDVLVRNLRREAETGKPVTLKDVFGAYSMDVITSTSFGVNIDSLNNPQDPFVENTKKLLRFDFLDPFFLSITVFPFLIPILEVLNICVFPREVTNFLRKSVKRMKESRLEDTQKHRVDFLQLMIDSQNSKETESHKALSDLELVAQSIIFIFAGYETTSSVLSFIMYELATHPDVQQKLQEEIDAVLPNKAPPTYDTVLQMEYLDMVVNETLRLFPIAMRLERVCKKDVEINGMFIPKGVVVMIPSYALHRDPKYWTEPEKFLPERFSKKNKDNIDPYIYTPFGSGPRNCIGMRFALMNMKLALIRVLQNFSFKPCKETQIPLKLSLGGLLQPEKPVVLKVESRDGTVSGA

- molecule: "CN(CC(=O)N1CCC[C@H](c2ccccc2)[C@@H]1CN1CCCC1)c1ccc(Cl)c(Cl)c1 (stereo in doubt; 10b)"
  output_unit: "µM"
  IC50: 1.4

----------
# system_tested: UniProt Q9UKP6
# test_method_notes: Displacement of [125I]human urotensin 2 from human recombinant urotensin 2 receptor expressed in HEK293 cells
Catalogue of compounds with associated Ki
reported_metric: Ki

- compound: "Cc1ccc2scc(CCC(=O)N3CCC[C@H](c4ccccc4)[C@@H]3CN3CCCC3)c2c1"
  system_tested: "UniProt Q9UKP6"
  reported_metric: "Ki"
  reported: "3160 nM"
- compound: "O=C(Cc1csc2ccc(Cl)cc12)N1CCCCCC1CN1CCCC1 (stereo unspecified)"
  system_tested: "UniProt Q9UKP6"
  reported_metric: "Ki"
  reported: "2000 nM"
- compound: "O=C(CN(CC1CC1)c1ccc(Cl)c(Cl)c1)N1CCC[C@H](c2ccccc2)[C@@H]1CN1CCCC1"
  system_tested: "UniProt Q9UKP6"
  reported_metric: "Ki"
  reported: "50.1 nM"
- compound: "CN(CC(=O)N1CCC[C@H](c2ccccc2)[C@@H]1CN1CCCC1)c1ccccc1Cl"
  system_tested: "UniProt Q9UKP6"
  reported_metric: "Ki"
  reported: "794 nM"
- compound: "O=C(c1cccc2ccccc12)N1CCC[C@H](c2ccccc2)[C@@H]1CN1CCCC1"
  system_tested: "UniProt Q9UKP6"
  reported_metric: "Ki"
  reported: "> 7940 nM"
- compound: "CN(CC(=O)N1CCC[C@H](c2ccccc2)[C@@H]1CN1CCCC1)Cc1ccc(Cl)c(Cl)c1"
  system_tested: "UniProt Q9UKP6"
  reported_metric: "Ki"
  reported: "3980 nM"
- compound: "CS(=O)(=O)N(CC(=O)N1CCC[C@H](c2ccccc2)[C@@H]1CN1CCCC1)c1ccc(Cl)c(Cl)c1"
  system_tested: "UniProt Q9UKP6"
  reported_metric: "Ki"
  reported: "79.4 nM"
- compound: "O=C(Cc1c[nH]c2ccc(Br)cc12)N1CCC[C@H](c2ccccc2)[C@@H]1CN1CCCC1"
  system_tested: "UniProt Q9UKP6"
  reported_metric: "Ki"
  reported: "631 nM"
- compound: "Cc1cccc(N(C)CC(=O)N2CCC[C@H](c3ccccc3)[C@@H]2CN2CCCC2)c1"
  system_tested: "UniProt Q9UKP6"
  reported_metric: "Ki"
  reported: "398 nM"
- compound: "CCN(CC(=O)N1CCC[C@H](c2ccccc2)[C@@H]1CN1CCCC1)c1ccc(Cl)c(Cl)c1"
  system_tested: "UniProt Q9UKP6"
  reported_metric: "Ki"
  reported: "31.6 nM"
- compound: "Cc1ccc2scc(CC(=O)N3CCC[C@H](c4ccccc4)[C@@H]3CN3CCCC3)c2c1"
  system_tested: "UniProt Q9UKP6"
  reported_metric: "Ki"
  reported: "15.8 nM"
- compound: "O=C(Cc1csc2ccc(Cl)cc12)N1CC[C@H](c2ccccc2)C[C@@H]1CN1CCCC1 (relative stereo)"
  system_tested: "UniProt Q9UKP6"
  reported_metric: "Ki"
  reported: "200 nM"
- compound: "CCCO[C@H]1CCCN(C(=O)Cc2csc3ccc(Cl)cc23)[C@H]1CN1CCCC1 (relative stereo)"
  system_tested: "UniProt Q9UKP6"
  reported_metric: "Ki"
  reported: "31.6 nM"
- compound: "O=C(Cc1ccc2ccccc2c1)N1CCC[C@H](c2ccccc2)[C@@H]1CN1CCCC1"
  system_tested: "UniProt Q9UKP6"
  reported_metric: "Ki"
  reported: "7940 nM"
- compound: "O=C(Cc1csc2ccc(Cl)cc12)N1CCCCC1CN1CCOCC1 (stereo unspecified)"
  system_tested: "UniProt Q9UKP6"
  reported_metric: "Ki"
  reported: "1260 nM"
- compound: "CN(CC(=O)N1CCC[C@H](c2ccccc2)[C@@H]1CN1CCCC1)c1ccc(Cl)cc1"
  system_tested: "UniProt Q9UKP6"
  reported_metric: "Ki"
  reported: "501 nM"
- compound: "CN(CC(=O)N1CCC[C@H](c2ccccc2)[C@@H]1CN1CCCC1)c1ccccc1"
  system_tested: "UniProt Q9UKP6"
  reported_metric: "Ki"
  reported: "3160 nM"
- compound: "CCN(CC)CC1CCCCN1C(=O)Cc1csc2ccc(Cl)cc12 (stereo unspecified)"
  system_tested: "UniProt Q9UKP6"
  reported_metric: "Ki"
  reported: "> 7940 nM"
- compound: "CN(CC(=O)N1CCC[C@H](c2ccccc2)[C@@H]1CN1CCCC1)c1ccc(Cl)c(Cl)c1 (stereo in doubt; 10b)"
  system_tested: "UniProt Q9UKP6"
  reported_metric: "Ki"
  reported: "15.8 nM"
- compound: "CN(CC(=O)N1CCC[C@H](c2ccccc2)[C@@H]1CN1CCCC1)c1ccc(Cl)c(Cl)c1 (stereo in doubt; 11a)"
  system_tested: "UniProt Q9UKP6"
  reported_metric: "Ki"
  reported: "6.31 nM"
- compound: "O=C(Cc1csc2ccc(Cl)cc12)N1CCC[C@H](C2CCCCC2)[C@@H]1CN1CCCC1 (relative stereo)"
  system_tested: "UniProt Q9UKP6"
  reported_metric: "Ki"
  reported: "25.1 nM"
- compound: "CN(CC(=O)N1CCC[C@H](c2ccccc2)[C@@H]1CN1CCCC1)c1cccc(C(F)(F)F)c1"
  system_tested: "UniProt Q9UKP6"
  reported_metric: "Ki"
  reported: "100 nM"
- compound: "O=C(Cc1csc2ccc(Br)cc12)N1CCC[C@H](c2ccccc2)[C@@H]1CN1CCCC1"
  system_tested: "UniProt Q9UKP6"
  reported_metric: "Ki"
  reported: "7.94 nM"
- compound: "O=C(Cc1csc2ccc(Cl)cc12)N1CCC[C@H](c2ccccc2)[C@@H]1CN1CCCC1"
  system_tested: "UniProt Q9UKP6"
  reported_metric: "Ki"
  reported: "3.98 nM"
- compound: "CN(CC(=O)N1CCC[C@H](c2ccccc2)[C@@H]1CN1CCCC1)c1ccc2ccccc2c1"
  system_tested: "UniProt Q9UKP6"
  reported_metric: "Ki"
  reported: "158 nM"
- compound: "CN(CC(=O)N1CCC[C@@H](c2ccccc2)[C@H]1CN1CCCC1)c1ccc(Cl)c(Cl)c1"
  system_tested: "UniProt Q9UKP6"
  reported_metric: "Ki"
  reported: "1580 nM"
- compound: "O=C(Cc1csc2ccc(Cl)cc12)N1C[C@H](c2ccccc2)CC[C@H]1CN1CCCC1 (relative stereo)"
  system_tested: "UniProt Q9UKP6"
  reported_metric: "Ki"
  reported: "31.6 nM"
- compound: "O=C(Cc1csc2ccc(Cl)cc12)N1CCC[C@@H](c2ccccc2)[C@H]1CN1CCCC1"
  system_tested: "UniProt Q9UKP6"
  reported_metric: "Ki"
  reported: "1000 nM"
- compound: "O=C(Cc1csc2ccccc12)N1CCC[C@H](c2ccccc2)[C@@H]1CN1CCCC1"
  system_tested: "UniProt Q9UKP6"
  reported_metric: "Ki"
  reported: "251 nM"
- compound: "C[C@H]1CCCN(C(=O)Cc2csc3ccc(Cl)cc23)[C@H]1CN1CCCC1 (relative stereo)"
  system_tested: "UniProt Q9UKP6"
  reported_metric: "Ki"
  reported: "200 nM"
- compound: "O=C(Cc1csc2ccc(Cl)cc12)N1CCCC1CN1CCCC1 (stereo unspecified)"
  system_tested: "UniProt Q9UKP6"
  reported_metric: "Ki"
  reported: "> 7940 nM"
- compound: "CC(=O)N(CC(=O)N1CCC[C@H](c2ccccc2)[C@@H]1CN1CCCC1)c1ccc(Cl)c(Cl)c1"
  system_tested: "UniProt Q9UKP6"
  reported_metric: "Ki"
  reported: "1580 nM"
- compound: "O=C(Cc1csc2ccc(Cl)cc12)N1CCCCC1CN1CCCC1 (stereo unspecified)"
  system_tested: "UniProt Q9UKP6"
  reported_metric: "Ki"
  reported: "501 nM"
- compound: "O=C(Cc1cccc2ccccc12)N1CCC[C@H](c2ccccc2)[C@@H]1CN1CCCC1"
  system_tested: "UniProt Q9UKP6"
  reported_metric: "Ki"
  reported: "79.4 nM"
- compound: "O=C(Cc1csc2ccc(Cl)cc12)N1CCOCC1CN1CCCC1 (stereo unspecified)"
  system_tested: "UniProt Q9UKP6"
  reported_metric: "Ki"
  reported: "794 nM"
- compound: "O=C(Cc1csc2ccc(Cl)cc12)N1CCCCC1CN1CCCCC1 (stereo unspecified)"
  system_tested: "UniProt Q9UKP6"
  reported_metric: "Ki"
  reported: "7940 nM"
